tested_target: human PDE2A1 (Homo sapiens (Human), UniProt O00408)
Sequence (O00408 other isoform, or with tags, fused parts or gaps): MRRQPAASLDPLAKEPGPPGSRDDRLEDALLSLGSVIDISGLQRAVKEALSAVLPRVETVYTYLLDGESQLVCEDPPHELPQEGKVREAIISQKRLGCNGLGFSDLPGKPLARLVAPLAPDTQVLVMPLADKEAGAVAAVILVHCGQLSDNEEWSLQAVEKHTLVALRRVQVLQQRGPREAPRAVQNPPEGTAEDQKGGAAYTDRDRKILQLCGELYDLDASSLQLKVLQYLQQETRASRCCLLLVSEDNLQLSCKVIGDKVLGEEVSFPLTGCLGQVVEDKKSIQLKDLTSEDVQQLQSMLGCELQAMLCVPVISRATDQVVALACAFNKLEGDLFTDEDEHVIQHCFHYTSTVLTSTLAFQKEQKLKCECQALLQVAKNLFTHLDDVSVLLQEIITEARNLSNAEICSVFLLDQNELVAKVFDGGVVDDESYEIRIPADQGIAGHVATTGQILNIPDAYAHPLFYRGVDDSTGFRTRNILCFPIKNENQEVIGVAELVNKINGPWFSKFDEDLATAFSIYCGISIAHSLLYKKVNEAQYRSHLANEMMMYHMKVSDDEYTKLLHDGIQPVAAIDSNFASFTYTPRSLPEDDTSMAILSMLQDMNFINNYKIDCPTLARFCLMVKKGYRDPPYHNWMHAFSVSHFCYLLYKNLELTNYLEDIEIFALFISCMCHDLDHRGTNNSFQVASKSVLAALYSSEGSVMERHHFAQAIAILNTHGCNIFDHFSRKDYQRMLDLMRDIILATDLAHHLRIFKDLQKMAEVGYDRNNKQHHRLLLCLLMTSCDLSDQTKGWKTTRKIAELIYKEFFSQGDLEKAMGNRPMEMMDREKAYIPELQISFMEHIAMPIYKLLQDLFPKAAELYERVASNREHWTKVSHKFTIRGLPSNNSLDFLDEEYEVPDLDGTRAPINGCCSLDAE
method: PDE selectivity IMAP FP assay, human PDE2A1
Type: biochemical
test_settings: Human PDE2; Lab B; read-out: Human PDE2 Ki (nM) Lab B
quantity: Ki (nM)

// worked examples, Ki included
CC(C)C(c1ccc(C(F)(F)F)c(F)c1)n1nc(CO)c2c(=O)[nH]c(N(C)C)nc21 (single isomer, unassigned) [Example 142] :: 0.19
O=c1[nH]c(O)nc2c1c(CF)nn2C(c1ccc(OC(F)(F)F)c(F)c1)C1CC1 (single isomer, unassigned) [Example 45] :: 28
CC(c1ccc(CC(F)(F)F)cc1)n1nc(CF)c2c(=O)[nH]c(N(C)C)nc21 (single isomer, unassigned) [Example 174] :: 2.7

(A) CC(c1ccc(OC(F)(F)F)cc1)n1nc(CC(F)(F)F)c2c(=O)[nH]c(O)nc21 (racemic)
(B) CN(C)c1nc2c(c(CO)nn2C(c2ccc(C(F)(F)F)c(F)c2)C2CC2)c(=O)[nH]1 (single isomer, unassigned) [Example 151]
Data request: Input pair: A , B . Output: entry with lower Ki. // output: label of the selected item
Data returned: B
(B: 0.61 nM, A: 13 nM)

====

tested_target: human PDE2A1 (Homo sapiens (Human), UniProt O00408)
method: PDE selectivity IMAP FP assay, human PDE2A1
Format: biochemical
test_settings: Human PDE2; Lab B; read-out: Human PDE2 Ki (nM) Lab B
Protocol: Selectivity for PDE2, as compared to other PDE families, was assessed using the IMAP® technology. Human PDE10A2 enzyme was prepared from cytosolic fractions of transiently transfected HEK cells. A Labcyte POD 810 (Labcyte, Sunnyvale, Calif.) was used to dispense 200 nL from each well of the titration plate to make eleven copies of the assay plate for each titration, one copy for each PDE enzyme. […]
quantity: Ki (nM)

C[C@@H](c1ccc(C(F)(F)F)cc1)n1nc(CCO)c2c(=O)[nH]c(O)nc21 :: 10
CC(c1ccc(CC(F)F)cc1)n1nc(C(F)(F)F)c2c(=O)[nH]c(O)nc21 (single isomer, unassigned) [Example 320] :: 13

(P) CC(C)C(c1ccc(C(C)(F)F)cc1F)n1nc(CO)c2c(=O)[nH]c(N(C)C)nc21 (single isomer, unassigned) [Example 118]
(Q) CC(c1ccc(C(F)(F)F)c(F)c1)n1nc(CC(F)(F)F)c2c(=O)[nH]c(O)nc21 (single isomer, unassigned)
(R) CC(c1ccc(OC(F)(F)F)cc1)n1nc(C(F)F)c2c(=O)[nH]c(O)nc21 (single isomer, unassigned)
Data request: Please give the order of these compounds when sorted by Ki, largest value leading. Please list each label once, in the requested order.
Data returned: R, Q, P
(R: 4 nM, Q: 1.4 nM, P: 0.42 nM)

(1) CC(c1ccc(C2CC2)cc1)n1nc(C(F)F)c2c(=O)[nH]c(O)nc21 (single isomer, unassigned) [Example 276]
(2) CC(C)C(c1ccc(C(F)(F)F)cc1F)n1nc(CO)c2c(=O)[nH]c(N(C)C)nc21 (single isomer, unassigned) [Example 133]
Data request: Input pair: 1 , 2 . Output: entry with lower Ki. // output: label of the selected item
Data returned: 2

(A) CC(C)c1ccc(C(C(C)C)n2nc(CF)c3c(=O)[nH]c(N(C)C)nc32)cc1 (single isomer, unassigned) [Example 176]
(B) CC(c1ccc(C(F)(F)F)cc1)n1nc(C(F)(F)C(F)(F)F)c2c(=O)[nH]c(O)nc21 (single isomer, unassigned)
Data request: Name the one with the greater Ki value, either A or B as given. // output: label of the selected item
Data returned: B

(P) CC(c1ccc(CC(F)(F)F)c(F)c1)n1nc(CO)c2c(=O)[nH]c(N(C)C)nc21 (single isomer, unassigned) [Example 101]
(Q) CC1(C(c2ccc(C(F)(F)F)cc2)n2nc(CC(F)(F)F)c3c(=O)[nH]c(O)nc32)CC1 (single isomer, unassigned)
Data request: Name the one with the greater Ki value, either P or Q as given. // output: label of the selected item
Data returned: Q
(Q: 21 nM, P: 0.29 nM)

====

tested_target: Rhesus PDE2A3 (Macaca mulatta, UniProt B3VTJ2)
Sequence (B3VTJ2 1-941): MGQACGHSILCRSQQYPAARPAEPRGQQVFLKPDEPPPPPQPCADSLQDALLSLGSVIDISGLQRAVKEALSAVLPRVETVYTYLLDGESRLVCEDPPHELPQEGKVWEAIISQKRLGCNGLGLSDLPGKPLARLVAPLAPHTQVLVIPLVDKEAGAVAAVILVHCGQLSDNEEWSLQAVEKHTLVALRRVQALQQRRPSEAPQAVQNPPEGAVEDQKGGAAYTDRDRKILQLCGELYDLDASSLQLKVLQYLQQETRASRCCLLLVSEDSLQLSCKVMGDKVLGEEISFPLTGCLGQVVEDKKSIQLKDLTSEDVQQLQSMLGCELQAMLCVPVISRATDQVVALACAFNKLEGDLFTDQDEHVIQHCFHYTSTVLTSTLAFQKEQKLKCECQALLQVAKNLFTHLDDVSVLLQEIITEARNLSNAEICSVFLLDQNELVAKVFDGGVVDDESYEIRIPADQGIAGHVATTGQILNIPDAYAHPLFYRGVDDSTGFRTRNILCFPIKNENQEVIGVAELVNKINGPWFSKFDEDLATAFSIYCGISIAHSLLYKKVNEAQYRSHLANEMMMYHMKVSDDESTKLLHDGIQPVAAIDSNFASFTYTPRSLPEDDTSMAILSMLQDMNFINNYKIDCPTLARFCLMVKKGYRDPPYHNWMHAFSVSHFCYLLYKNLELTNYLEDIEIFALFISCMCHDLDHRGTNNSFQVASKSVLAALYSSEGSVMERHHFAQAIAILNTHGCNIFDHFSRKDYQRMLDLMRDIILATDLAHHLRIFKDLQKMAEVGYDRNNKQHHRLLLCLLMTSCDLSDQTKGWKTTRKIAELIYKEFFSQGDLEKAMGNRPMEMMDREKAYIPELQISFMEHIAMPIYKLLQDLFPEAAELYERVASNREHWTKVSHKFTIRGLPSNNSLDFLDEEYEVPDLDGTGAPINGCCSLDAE
method: PDE2 fluorescence polarization (IMAP FP) assay, rhesus PDE2A3
Format: biochemical, rhesus macaque
test_settings: Lab A, read-out: Rhesus PDE2 Ki (nM) Lab A
quantity: Ki (nM)

// worked examples, Ki included
Cc1nn(C(C)c2ccc(C(F)(F)F)cc2)c2nc(N(C)C)[nH]c(=O)c12 (stereo not shown) :: 6
Cc1nn(C(C)c2ccc(C(F)(F)F)cc2)c2nc(N3CCCC3)[nH]c(=O)c12 (stereo not shown) :: 8
CC(c1ccc(OC(F)(F)F)c(F)c1)n1nc(CO)c2c(=O)[nH]c(O)nc21 (single isomer, unassigned) [Example 10] :: 145
CC(C)C(c1ccc(C(F)(F)F)cc1)n1nc(CF)c2c(=O)[nH]c(O)nc21 (stereo not shown) :: 1.7
CC(c1ccc(S(F)(F)(F)(F)F)cc1)n1nc(CO)c2c(=O)[nH]c(O)nc21 (single isomer, unassigned) [Example 21] :: 20

(1) Cc1nn(C(C)c2ccc(OC(F)(F)F)cc2)c2nc(O)[nH]c(=O)c12 (stereo not shown)
(2) Cc1ccc(C(C)n2nc(CCl)c3c(=O)[nH]c(O)nc32)cc1 (stereo not shown)
(3) CC(c1ccc(C2CC2)cc1)n1nc(CO)c2c(=O)[nH]c(O)nc21 (stereo not shown)
(4) COc1nc2c(c(C)nn2C(C)c2ccc(C(F)(F)F)cc2)c(=O)[nH]1 (stereo not shown)
Data request: Please give the order of these compounds when sorted by Ki, largest value leading. Please list each label once, in the requested order.
Data returned: 4, 1, 3, 2

(a) Cc1nn(C(C)c2ccc(C(F)(F)F)cc2)c2nc(O)[nH]c(=O)c12 (stereo not shown)
(b) CC(c1ccc(OC(F)(F)F)c(F)c1)n1nc(CO)c2c(=O)[nH]c(O)nc21 (single isomer, unassigned) [Example 11]
Data request: Name the one with the greater Ki value, either a or b as given. // output: label of the selected item
Data returned: a

====

tested_target: Rhesus PDE2A3 (Macaca mulatta)
method: PDE2 fluorescence polarization (IMAP FP) assay, rhesus PDE2A3
Format: biochemical, rhesus macaque
test_settings: Lab B, read-out: Rhesus PDE2 Ki (nM) Lab B
quantity: Ki (nM)

// worked examples, Ki included
CN(C)c1nc2c(c(CO)nn2C(c2ccc(OC(F)F)c(F)c2)C2CC2)c(=O)[nH]1 (single isomer, unassigned) [Example 123] :: 0.61
CC(c1ccc(OC(F)(F)F)cc1)n1nc(CO)c2c(=O)[nH]c(N(C)C)nc21 (single isomer, unassigned) [Example 148] :: 3.3

(I) CC(c1ccc(OC(F)(F)F)c(F)c1)n1nc(C(F)F)c2c(=O)[nH]c(O)nc21 (single isomer, unassigned) [Example 287]
(II) CC(C)C(c1ccc(OC(F)F)cc1)n1nc(CO)c2c(=O)[nH]c(N(C)C)nc21 (single isomer, unassigned) [Example 121]
(III) CN(C)c1nc2c(c(CO)nn2C(c2ccc(C(F)(F)F)cc2)C2CC2)c(=O)[nH]1 (single isomer, unassigned) [Example 74]
(IV) CCC(c1ccc(C(F)(F)F)cc1)n1nc(C(F)F)c2c(=O)[nH]c(O)nc21 (single isomer, unassigned) [Example 285]
(V) CC(c1ccc(CC(F)(F)F)c(F)c1)n1nc(CO)c2c(=O)[nH]c(N(C)C)nc21 (single isomer, unassigned) [Example 100]
Data request: Sort the molecules on Ki; start with the lowest figure. Please list each label once, in the requested order.
Data returned: III, II, V, I, IV
(III: 0.15 nM, II: 0.31 nM, V: 1.1 nM, I: 44 nM, IV: 232 nM)

(I) CN(C)c1nc2c(c(CF)nn2C(c2ccc(C(F)(F)F)c(F)c2)C2CC2)c(=O)[nH]1 (single isomer, unassigned) [Example 181]
(II) O=c1[nH]c(O)nc2c1c(CO)nn2C(CF)c1ccc(C(F)(F)F)cc1 (centres unmarked) [Example 33]
(III) CC(C)(C)C(c1ccc(C(F)(F)F)cc1)n1nc(CO)c2c(=O)[nH]c(O)nc21 (single isomer, unassigned) [Example 29]
(IV) CCC(c1ccc(C(F)(F)F)c(F)c1)n1nc(CF)c2c(=O)[nH]c(N(C)C)nc21 (single isomer, unassigned) [Example 222]
(V) C[C@@H](c1ccc(S(F)(F)(F)(F)F)cc1)n1nc(CF)c2c(=O)[nH]c(O)nc21 [Example 50]
Data request: Sort the molecules on Ki; start with the lowest figure. Please list each label once, in the requested order.
Data returned: IV, I, V, II, III

(A) CC(c1ccc(OC(F)(F)F)cc1)n1nc(CO)c2c(=O)[nH]c(N(C)C)nc21 (single isomer, unassigned) [Example 149]
(B) CC(C)C(c1ccc(C(F)(F)F)cc1)n1nc(CC(F)(F)F)c2c(=O)[nH]c(O)nc21 (single isomer, unassigned) [Example 240]
Data request: Input pair: A , B . Output: entry with lower Ki. // output: label of the selected item
Data returned: A
(A: 0.46 nM, B: 11 nM)

Numbers sourced from patent US10174037B2.
